- TEST_SYSTEM: TRKA (Homo sapiens (Human), UniProt P04629)
- Sequence (P04629 33-796 limits assumed): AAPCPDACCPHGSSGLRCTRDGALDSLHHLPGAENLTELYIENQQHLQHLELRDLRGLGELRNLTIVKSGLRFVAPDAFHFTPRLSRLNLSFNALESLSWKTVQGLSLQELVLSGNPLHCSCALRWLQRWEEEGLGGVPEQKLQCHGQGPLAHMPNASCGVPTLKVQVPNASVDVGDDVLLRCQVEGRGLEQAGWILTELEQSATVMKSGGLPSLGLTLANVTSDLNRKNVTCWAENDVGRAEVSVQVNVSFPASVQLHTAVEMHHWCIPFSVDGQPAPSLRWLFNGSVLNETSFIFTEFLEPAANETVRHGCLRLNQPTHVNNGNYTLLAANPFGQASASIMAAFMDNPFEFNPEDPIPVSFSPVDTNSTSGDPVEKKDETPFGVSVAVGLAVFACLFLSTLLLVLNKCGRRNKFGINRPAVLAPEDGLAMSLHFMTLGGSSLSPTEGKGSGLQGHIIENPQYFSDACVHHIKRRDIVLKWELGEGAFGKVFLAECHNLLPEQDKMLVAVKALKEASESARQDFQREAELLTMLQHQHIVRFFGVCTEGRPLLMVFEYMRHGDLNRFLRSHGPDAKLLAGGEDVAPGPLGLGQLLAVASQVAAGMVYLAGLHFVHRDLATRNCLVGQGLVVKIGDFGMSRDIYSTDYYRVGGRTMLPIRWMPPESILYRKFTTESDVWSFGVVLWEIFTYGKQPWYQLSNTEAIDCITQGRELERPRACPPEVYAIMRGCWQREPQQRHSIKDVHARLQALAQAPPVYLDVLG
- PROTOCOL_DETAILS: Inhibitory activity on TRKA (ADP-Glo Kinase Assay)
- MEASUREMENT_CONDITIONS: read-out: TRKA IC50; ATP 5 μM
MEASUREMENT_TYPE: IC50 (nM)
Expressed in nM, but write only the number.

These recorded examples may help you get a feel for the data.
CCc1cc(O)c(F)cc1-c1ccc2c(-c3nc4c([nH]3)CN(C(=O)NCCO)C4)n[nH]c2c1 [MDI-248]
12
CCNC(=O)N1Cc2nc(-c3n[nH]c4cc(-c5cc(F)c(O)cc5CC)ccc34)[nH]c2C1 [MDI-247]
10.3
CCOC(=O)N1Cc2nc(-c3n[nH]c4cc(-c5cc(F)c(O)cc5CC)ccc34)[nH]c2C1 [MDI-253]
11.4
CCc1cc(O)c(F)cc1-c1ccc2c(-c3nc4c([nH]3)CN(C(=O)C3CC3)C4)n[nH]c2c1 [MDI-1233]
12.2

Hi! What's the reported IC50 for CCc1cc(O)c(F)cc1-c1ccc2c(-c3nc4c([nH]3)CN(S(=O)(=O)C3CC3)C4)n[nH]c2c1 [MDI-218] on TRKA (Homo sapiens (Human), UniProt P04629)?
9.97
